protocol_details: Human plasma protein binding
Format: in vitro ADME
condition_summary: n=6, read-out: Human Plasma Protein Binding, bound to plasma proteins (converted)
observed_property: fraction unbound

cpd_smiles	value_measured
CN(C)C(=O)[C@H](CCCCNC(=N)N)NC(=O)[C@H](CCc1ccc(CCCCNC(=N)NC(=O)c2nc(Cl)c(N)nc2N)cc1)N(C)C	0.2

====

protocol_details: Solubility and accelerated stability in citrate buffer
Format: physicochemical
condition_summary: aqueous buffer, thermodynamic from solid; pH 4.2 citrate buffer with 2.8% NaCl; highest concentration tested

cpd_smiles	solubility
CN(C)C(=O)[C@H](CCCCNC(=N)N)NC(=O)[C@H](CCc1ccc(CCCCNC(=N)NC(=O)c2nc(Cl)c(N)nc2N)cc1)N(C)C	≥ 8800 µg/mL

====

system_name: ENaC (Canis lupus familiaris, UniProt A0A8I3MKE6+A0A8I3Q679+Q95165)
Construct: using primary cultures of canine bronchial epithelial cells; endogenous in cells
Sequence (A0A8I3Q679 1-649): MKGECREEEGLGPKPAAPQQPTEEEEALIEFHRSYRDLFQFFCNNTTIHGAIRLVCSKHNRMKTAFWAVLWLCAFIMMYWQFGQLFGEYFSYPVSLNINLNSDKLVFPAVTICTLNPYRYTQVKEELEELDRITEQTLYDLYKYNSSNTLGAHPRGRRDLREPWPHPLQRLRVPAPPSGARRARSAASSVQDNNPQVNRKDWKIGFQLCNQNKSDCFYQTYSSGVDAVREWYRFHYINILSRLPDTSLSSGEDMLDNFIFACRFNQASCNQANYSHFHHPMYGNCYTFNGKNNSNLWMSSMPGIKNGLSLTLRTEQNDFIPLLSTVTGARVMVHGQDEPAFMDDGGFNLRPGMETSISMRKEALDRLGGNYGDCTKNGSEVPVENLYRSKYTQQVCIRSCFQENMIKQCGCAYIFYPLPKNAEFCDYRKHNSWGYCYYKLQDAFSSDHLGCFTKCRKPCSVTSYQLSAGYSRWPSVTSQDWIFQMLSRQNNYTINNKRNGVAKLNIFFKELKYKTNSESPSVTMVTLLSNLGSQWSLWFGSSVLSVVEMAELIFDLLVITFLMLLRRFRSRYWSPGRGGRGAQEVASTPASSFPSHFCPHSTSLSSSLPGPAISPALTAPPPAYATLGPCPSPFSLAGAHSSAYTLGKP
Sequence (Q95165 whole entry): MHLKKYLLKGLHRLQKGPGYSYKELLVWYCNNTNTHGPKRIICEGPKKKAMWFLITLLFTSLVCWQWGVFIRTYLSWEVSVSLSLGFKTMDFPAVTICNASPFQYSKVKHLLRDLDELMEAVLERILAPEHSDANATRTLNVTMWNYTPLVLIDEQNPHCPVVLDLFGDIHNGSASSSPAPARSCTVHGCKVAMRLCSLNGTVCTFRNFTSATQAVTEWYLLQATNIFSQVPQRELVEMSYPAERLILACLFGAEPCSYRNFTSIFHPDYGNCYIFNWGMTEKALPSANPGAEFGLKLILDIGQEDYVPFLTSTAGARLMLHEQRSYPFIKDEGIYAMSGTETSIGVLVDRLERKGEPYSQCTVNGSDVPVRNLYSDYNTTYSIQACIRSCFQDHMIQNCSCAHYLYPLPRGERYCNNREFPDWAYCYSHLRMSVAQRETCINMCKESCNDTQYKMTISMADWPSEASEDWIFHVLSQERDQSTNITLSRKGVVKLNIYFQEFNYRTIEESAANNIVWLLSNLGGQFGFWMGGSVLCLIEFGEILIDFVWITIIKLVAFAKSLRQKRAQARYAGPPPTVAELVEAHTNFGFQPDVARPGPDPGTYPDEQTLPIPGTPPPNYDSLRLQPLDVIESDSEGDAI
Sequence (A0A8I3MKE6 1-646): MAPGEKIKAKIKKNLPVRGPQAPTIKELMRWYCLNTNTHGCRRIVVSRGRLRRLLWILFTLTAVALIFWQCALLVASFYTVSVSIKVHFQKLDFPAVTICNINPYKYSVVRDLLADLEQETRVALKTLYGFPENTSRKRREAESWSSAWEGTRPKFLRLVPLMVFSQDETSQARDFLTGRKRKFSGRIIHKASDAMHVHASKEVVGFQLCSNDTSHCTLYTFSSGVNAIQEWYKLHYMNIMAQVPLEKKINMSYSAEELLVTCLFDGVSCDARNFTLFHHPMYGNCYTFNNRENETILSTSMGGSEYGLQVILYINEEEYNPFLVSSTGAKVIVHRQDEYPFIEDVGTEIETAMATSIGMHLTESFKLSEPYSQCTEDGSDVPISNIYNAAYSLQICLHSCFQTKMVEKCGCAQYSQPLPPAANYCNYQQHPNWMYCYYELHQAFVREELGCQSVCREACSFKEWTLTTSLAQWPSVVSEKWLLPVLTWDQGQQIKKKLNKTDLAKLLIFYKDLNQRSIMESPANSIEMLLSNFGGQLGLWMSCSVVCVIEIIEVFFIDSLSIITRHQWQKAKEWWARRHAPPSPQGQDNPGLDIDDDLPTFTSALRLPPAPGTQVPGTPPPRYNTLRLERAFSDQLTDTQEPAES
protocol_details: In vitro sodium channel blocking activity and reversibility (short circuit current, Ussing chambers)
condition_summary: canine bronchial epithelial cells; n=5; read-out: Potency (IC50) on Canine Bronchial Epithelial Cells
observed_property: IC50 (nM)

cpd_smiles	system_name	value_measured
CN(C)C(=O)[C@H](CCCCNC(=N)N)NC(=O)[C@H](CCc1ccc(CCCCNC(=N)NC(=O)c2nc(Cl)c(N)nc2N)cc1)N(C)C	ENaC (Canis lupus familiaris, UniProt A0A8I3MKE6+A0A8I3Q679+Q95165)	5.3
